# METHOD_DESCRIPTION: label from the status in PepcDB records

[
  {
    "SEQUENCE_DATA": "MLKDQANQLEFPRDFLGISLADQPNKYYFIIRTQRIVLEADSSIQLIMEKLQSYKSKVALYFDGFQYQLGDFRLRVGKVVPTHSENVRGIVMEVEYLPISSMEKAQKVMEEFLEIWNEALAKRSLPGKFVNIDLNFGEFGLGDIYTPQHTAVRYALVMAHMIATVQAVRG",
    "protein production": "failed"
  },
  {
    "SEQUENCE_DATA": "MAESPTEEAATATAGAGAAGPGSSGVAGVVGVSGSGGGFGPPFLPDVWAAAAAAGGAGGPGSGLAPLPGLPPSAAAHGAALLSHWDPTLSSDWDGERTAPQCLLRIKRDIMSIYKEPPPGMFVVPDTVDMTKIHALITGPFDTPYEGGFFLFVFRCPPDYPIHPPRVKLMTTGNNTVRFNPNFYRNGKVCLSILGTWTGPAWSPAQSISSVLISIQSLMTENPYHNEPGFEQERHPGDSKNYNECIRHETIRVAVCDMMEGKCPCPEPLRGVMEKSFLEYYDFYEVACKDRLHLQGQTMQDPFGEKRGHFDYQSLLMRLGLIRQKVLERLHNENAEMDSDSSSSGTETDLHGSLRV",
    "protein production": "failed"
  }
]

====

# METHOD_DESCRIPTION: label from the status in PepcDB records
OUTCOME_MEASURE: protein production

Reference set, count: 10
[
  {
    "SEQUENCE_DATA": "MNSGDNIIKKKSFTFAVRIVNLYKVLSSEIKEFVMSKQLLRSGTSVGANIREALNAQSKPGFIHKLAISQKECDETGYTNNVEFESMNTDAIELLKIVRSIIMTSKKNIIHNSLEHHHHHH",
    "protein production": "failed"
  },
  {
    "SEQUENCE_DATA": "MWIAVSAVNLALAVILGAFGAHGLKAYASPAKLAWWQTATDYFFYHALGLLVLGVISKTYTVLPIKSSFILIQIGILFFCGSLYLMALGLPRGFGAITPIGGAFMILGWIVLAWNAVKYAK",
    "protein production": "failed"
  },
  {
    "SEQUENCE_DATA": "REIADNTYIVLGTMTLNDFNEYFETDLESDNVDTIAGFYLTGVGTIPSQEEKEHFEVESNGKHLELINDKVKDGRVTKLKILVSEVEEKEDEKD",
    "protein production": "not failed"
  },
  {
    "SEQUENCE_DATA": "MLWFGQPGPGGWNRKCLRPFTLPRGQHPQPSYGFPQVNEVVFSPGESHCATCSEDGSVRVWALASMELVIQFQVLNQSCLCLAWSPPCCGRPEQQRLAAGYGDGSLRIFSVSRTAMELKMHPHPVALTTVAFSTDGQTVLSGDKDGLVAVSHPCTGTTFRVLSDHQGAPISTICVTCKETQGHLPPSLAAFCPWDGALLMYVGPGVYKEVIIYNLCQKQVVEKIPLPFFAMSLSLSPGTHLLAVGFAECMLRLVDCAMGTAQDFAGHDNAVHLCRFTPSARLLFTAARNEILVWEVPGL",
    "protein production": "failed"
  },
  {
    "SEQUENCE_DATA": "LKYMYKIDDDKKYILYCPTWRGNQRKEVTQINLKDLLKYLPENYEIIVKLHPNESHLRTRYNQIDNRIHCYFNELVDIQELYILSECMITDYSSTIFDYIHLNKPVFILQEDEQQYKQSVGFYFDLFEVGDFLKASLNERMLAKQICSTDYINYSKVVHRLMKQDSSKSSEKLMAEILG",
    "protein production": "failed"
  },
  {
    "SEQUENCE_DATA": "MKIGIIGVGKMASAIIKGLKQTPHELIISGSSLERSKEIAEQLALPYAMSHQDLIDQVDLVILGIKPQLFETVLKPLHFKQPIISMAAGISLQRLATFVGQDLPLLRIMPNMNAQILQSSTALTGNALVSQELQARVRDLTDSFGSTFDISEKDFDTFTALAGSSPAYIYLFIEALAKAGVKNGIPKAKALEIVTQTVLASASNLKTSSQSPHDFIDAICSPGGTTIAGLMELERLGLTATVSSAIDKTIDKAKSL",
    "protein production": "not failed"
  },
  {
    "SEQUENCE_DATA": "MQDERWNHPLYTTTAINDEELEGHAYIPGGLKVQTSSPMNDHPGTNPEQLLGLSLSTCLEATLEAVEKEHGLPHTGAVRVKVAFIGARAEYQFLVHAQVMVKGVDFDTAKAFTNEIENRCPVSKLLKNSGNYTIETVTDFKD",
    "protein production": "not failed"
  },
  {
    "SEQUENCE_DATA": "MRMIGRRRALEHRITLIAVIVILQLAATLFFLVDVTGDLRADGSGVHIAAEAGAAIALLVGVVFGAAQVRWLVLRARQDEAAVAAAKGALADLARLRFSDWKLTAAEADVALFALKGCDVAEIAALRGAAAGTVRAQLARVYAKAGVNSQSALMALFLEELVEAGEG",
    "protein production": "failed"
  },
  {
    "SEQUENCE_DATA": "MTEISYEAIAFEQSGPITRITLNRPDAANGMNDTMTRELADAARRADTSGAKVVVLTGSGRFFSAGGDLKAFSTAPSRGAFIKGVADDLHRAISSFARMDAVLITAVNGTAAGAGFSIAVTGDLVLAAESASFTMAYTKVGLSPDGSASYYLPRLVGMRRAQELMLTNRTLSATEAYEWGLVTEVVPDADLADRATKLAEQVAAGSAGSNGAVKSLLLSSLKNSLEEQMEAEGRFIAARADSADGREGVDAFLGKRRPEFA",
    "protein production": "failed"
  },
  {
    "SEQUENCE_DATA": "MKTEKEKREEEEEDLRPFRIHAYSKEELAMLYNPTYCISNAIYTLAAWIRHNKALKGELEKVGYNKYRRTFTPLEVKVLVKYLGEP",
    "protein production": "failed"
  }
]

[in] Which protein production is reported for this sequence? MRGFFSNPWIRWALSLAFLGVILFFLRDQLDFLKMGIQQIRHVSPVGVALTMVALVLSFVAMARVMQIMLKAGGSPATLKATTALTFAANSWSATLPGGPAFSAILTYKVQRSWGASAVLCSWFFLLSSALSTVWLVALGVIAVFYMGASLNLWSLIATFIAMVGLSGAVYWAANNPDSLARWVRKLTKNREWGFVEKLLGSIEQLRSVSLTGPQFAASTAWSLGNRLFDAISLWICIWAVTGTAPMFEPEPNNTTIAGVLLAYTTAKIAGSIQATPGGIGPIEAAYIAALVATGMTAVEAAGAVIIYRLCSFIIMAIVGWVIYFIYFTPQGLKANESLDVEQDTINSDSNRQSAIERPDT
[out] failed

[in] Which protein production is reported for this sequence? MENWVIQIIERLGYLGIAFLMFLDNVFPPIPSEIIMPSAGYTASRGQLQIIGVIVAGSLGSILAAAILYALGRQISHAALFRWTDRYGKYLLIQTKDLQIALEWFEKYGHRIVFFGRMIPAVRSLISIPAGMSRMPFWKFMLYSSLGTVIWTTFLAGVGFYFGENQAFMFSIMHRVGYLILAITLMVSVWWIYHKFYKKR
[out] failed

[in] Which protein production is reported for this sequence? LSDPNLVLFYVKNPAKSEEFYKNLLDTQPIESSPTFAMFVMKTGLRLGLWAQEEIEPKAHQTGGGMELSFQVNSNEMVDEIHRQWSDKEISIIQPPTQMDFGYTFVGVDPDEHRLRIFCLKRT
[out] not failed

[in] Which protein production is reported for this sequence? MPLFKFAIDVQYRSNVRDPRGETIERVLREEKGLPVKKLRLGKSIHLEVEAENKEKAYEIVKKACEELLVNPVVEEYEVREL
[out] not failed

[in] Which protein production is reported for this sequence? MFVFIPLFTIFILLAGGYFAKRIGVLKQKQARTFLDFAIIFALPCLIFDKAYHLNFDFSLIIFIFIGLFSCILAAFFAILIGKVFHFSKVTLVSMFLLSCFGNTIFVGMPIVAGIFNDPQFSAEVIFYDALATTLPISLFGPFILSLGNGEKVSLLANVKKILSFPPFLALLFGFLCKLITLPEFIFSPIRLFGASATPVALFAIGLGLGFMAIKTSYKPTIVVIFTKMILAPLFFVFCLKIFNLELKDSTIVAIIESAAPTMTLAGAMVMKAKLDSNLAVSAVAFGVLFAFVSMPILIWTLL
[out] failed
